TARGET_ENTITY: Human IP6K1 (Homo sapiens)
Construct: GST (N, cleaved yes); made in house; host or cells: C43 E. coli, pGEX-6P-2
Sequence (Q92551 whole entry): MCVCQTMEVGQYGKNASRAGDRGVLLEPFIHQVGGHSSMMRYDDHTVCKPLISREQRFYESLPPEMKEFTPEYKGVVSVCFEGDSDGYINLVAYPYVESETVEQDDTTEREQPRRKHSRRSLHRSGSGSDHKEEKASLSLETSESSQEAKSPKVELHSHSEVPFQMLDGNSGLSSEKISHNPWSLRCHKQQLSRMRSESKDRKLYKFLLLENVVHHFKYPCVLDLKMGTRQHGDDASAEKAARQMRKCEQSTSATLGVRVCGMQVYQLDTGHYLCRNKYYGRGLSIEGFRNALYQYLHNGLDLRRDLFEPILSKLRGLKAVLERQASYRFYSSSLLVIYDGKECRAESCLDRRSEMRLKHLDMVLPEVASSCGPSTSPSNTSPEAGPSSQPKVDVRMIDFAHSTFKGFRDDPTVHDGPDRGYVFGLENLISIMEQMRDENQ
PROTOCOL_DESCRIPTION: IP6K1 high-throughput screen of the Sigma LOPAC (ADP-Glo Max, single point);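 further: final compound concentration 10µM in 5% DMSO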
Format: biochemical
TEST_CONTEXT: Sigma LOPAC single-point screen, ADP-Glo Max raw signal per well
Where a name gives a salt, the structure may show the parent alone.
Parameter threshold = 60000. Response is 1 when Raw Signal meets or exceeds it, else 0.

Answered cases to consult:
{"COMPOUND": "CC#CCOC(=O)c1c(C)nc2sc3c(c2c1N)CCC(O)C3 (stereo not shown)", "CLASS_LABEL": 0}
{"COMPOUND": "CN1CCN(CCCN2c3ccccc3Sc3ccc(C(F)(F)F)cc32)CC1 [Trifluoperazine dihydrochloride]", "CLASS_LABEL": 0}
{"COMPOUND": "O=Nc1ccc2oc(=O)ccc2c1", "CLASS_LABEL": 0}

[ask] Check the entry CN(C)CCCN1c2ccccc2Sc2ccc(Cl)cc21 [Chlorpromazine hydrochloride] : does Raw Signal equal or exceed 60000?
[reply] 1

[ask] Subsequent entry: CCCn1c(=O)[nH]c(=O)c2nc[nH]c21
[reply] 0

[ask] And for Oc1c2ccccc2c2c3c(cccc13)N=N2 ?
[reply] 0

[ask] Now consider CC(COc1ccccc1)N(CCCl)Cc1ccccc1 (stereo not shown) [Phenoxybenzamine hydrochloride] .
[reply] 1

[ask] Param item: CNC(=O)c1cc2c(cn1)[nH]c1ccccc12 [N-Methyl-beta-carboline-3-carboxamide]
[reply] 0

[ask] How about this compound: COCCCC/C(=N\OCCN)c1ccc(C(F)(F)F)cc1 [Fluvoxamine maleate]
[reply] 0

[ask] Cool, now c1ccc2c(c1)OCC(C1=NCCN1)O2 (stereo not shown) [Idazoxan hydrochloride]
[reply] 0

[ask] Then this compound: COc1ccccc1CNCCCCCCNCCCCCCCCNCCCCCCNCc1ccccc1OC.Cl.Cl.Cl.Cl [Methoctramine tetrahydrochloride]
[reply] 0
